test: Circular dichroism spectroscopy (helicity, thermal stability); type: physicochemical; details: 35 μM peptide, PBS pH 7
Kindly supply the reported Tm (midpoint of melting transition) values for the records listed here.
Only the number, expressed in °C, is required.

Query: Write down Tm (midpoint of melting transition) measured for item Ac-SGVAVSKVLHLEGEVNKIKSALLSTNKAVVSLSNGVSVLTSKVLDLKNYIDKQL-NH2 (N-terminus and C-terminus assumed) [Peptide T1623]
Response: 55

Query: Write down Tm (midpoint of melting transition) measured for item AVSKVLHLEGEVNKIKSALLSTNKAVVSLSNGVSVLTSKVLDLKNYIDKQ (Ac-AVSKVLHLEGEVNKIKSALLSTNKAVVSLSNGVSVLTSKVLDLKNYIDKQ-NH2) [Peptide T1772, RSV DP107-like peptide, residues 153-202 of the RSV F-protein]
Response: 42

Query: Write down Tm (midpoint of melting transition) measured for item Ac-AVSKVLHLEGEVNKIKSALLSTNKAVVSLSNGVSVLTSKVLDLKNYIDKQL-NH2 (N-terminus and C-terminus assumed) [Peptide T1584]
Response: 53

Query: Write down Tm (midpoint of melting transition) measured for item T1582: RSV HR1 (DP107-like) peptide of FIG. 28, shorter than T1581 (Ac-VLHLEGEVNKIKSALLSTNKAVVSLSNGVSVLTSKVLDLKNYIDK-NH2) [Peptide T1582]
Response: 22

Query: Write down Tm (midpoint of melting transition) measured for item Ac-VLHLEGEVNKIKSALLSTNKAVVSLSNGVSVLTSKVLDLKNYIDKQ-NH2 (N-terminus and C-terminus assumed) [Peptide T1581]
Response: 31
